System: OCI-AML2 (Acute Myeloid Leukemia);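 also: after 72 h of two-drug dosing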
Test: Bliss excess, mean over the matrix (fraction); higher = more synergy

[
  {
    "COMPOUND": "C=CCn1c(=O)c2cnc(Nc3ccc(N4CCN(C)CC4)cc3)nc2n1-c1cccc(C(C)(C)O)n1 [AZD1775] + Nc1ccn([C@@H]2O[C@H](CO)[C@@H](O)C2(F)F)c(=O)n1 [Gemcitabine] (first compound max 1 µM, partner max 0.3 µM)",
    "SYSTEM TESTED": "OCI-AML2 (Acute Myeloid Leukemia)",
    "Bliss excess": 0.0415
  },
  {
    "COMPOUND": "COc1cccc(OCCCN)c1-c1cc(Nc2cnc(C#N)cn2)n[nH]1 [Prexasertib] + CCc1c2c(nc3ccc(O)cc13)-c1cc3c(c(=O)n1C2)COC(=O)[C@]3(O)CC [SN-38] (first compound max 1 µM, 7x7, partner max 0.3 µM)",
    "SYSTEM TESTED": "OCI-AML2 (Acute Myeloid Leukemia)",
    "Bliss excess": -0.0094
  },
  {
    "COMPOUND": "COc1nnc2ccc(N3CCC(c4ccc(OCCN5CCN(C)C(=O)[C@H]5C)cc4)CC3)nn12 [AZD5153] + CC1(C)CCC(CN2CCN(c3ccc(C(=O)NS(=O)(=O)c4ccc(NCC5CCOCC5)c([N+](=O)[O-])c4)c(Oc4cnc5[nH]ccc5c4)c3)CC2)=C(c2ccc(Cl)cc2)C1 [Venetoclax] (first compound max 1 µM, 7x7, partner max 1 µM)",
    "SYSTEM TESTED": "OCI-AML2 (Acute Myeloid Leukemia)",
    "Bliss excess": -0.0422
  },
  {
    "COMPOUND": "NC1(C(=O)N[C@@H](CCO)c2ccc(Cl)cc2)CCN(c2ncnc3[nH]ccc23)CC1 [Capivasertib] + CCN(CCO)CCCOc1ccc2c(Nc3cc(CC(=O)Nc4cccc(F)c4)[nH]n3)ncnc2c1 [AZD2811] (first compound max 10 µM, 7x7, partner max 1 µM)",
    "SYSTEM TESTED": "OCI-AML2 (Acute Myeloid Leukemia)",
    "Bliss excess": 0.0134
  },
  {
    "COMPOUND": "Cc1c2c(nn1C)CSCc1cc(n(C)n1)CSc1cc(c3ccccc3c1)OCCCc1c(C(=O)O)n(C)c3c-2c(Cl)ccc13 [AZD5991] + C=CCn1c(=O)c2cnc(Nc3ccc(N4CCN(C)CC4)cc3)nc2n1-c1cccc(C(C)(C)O)n1 [AZD1775] (first compound max 1 µM, partner max 1 µM)",
    "SYSTEM TESTED": "OCI-AML2 (Acute Myeloid Leukemia)",
    "Bliss excess": -0.0366
  },
  {
    "COMPOUND": "C=CCn1c(=O)c2cnc(Nc3ccc(N4CCN(C)CC4)cc3)nc2n1-c1cccc(C(C)(C)O)n1 [AZD1775] + C1CN(CCC1(C(=O)N[C@@H](CCO)C2=CC=C(C=C2)Cl)N)C3=NC=NC4=C3C=CN4 [Capivasertib] (first compound max 3 µM, partner max 3 µM)",
    "SYSTEM TESTED": "OCI-AML2 (Acute Myeloid Leukemia)",
    "Bliss excess": -0.0405
  },
  {
    "COMPOUND": "Cc1c2c(nn1C)CSCc1cc(n(C)n1)CSc1cc(c3ccccc3c1)OCCCc1c(C(=O)O)n(C)c3c-2c(Cl)ccc13 [AZD5991] + CS(=O)(=O)CCNCc1ccc(-c2ccc3ncnc(Nc4ccc(OCc5cccc(F)c5)c(Cl)c4)c3c2)o1 [Lapatinib] (first compound max 1 µM, 7x7, partner max 10 µM)",
    "SYSTEM TESTED": "OCI-AML2 (Acute Myeloid Leukemia)",
    "Bliss excess": 0.0415
  }
]
